Property: IC50; scope: individual molecules
test system: Plasmodium falciparum Dd2 (chloroquine-resistant strain); assay: In vitro drug sensitivity assay (modified WHO microtest), schizont maturation; format: cell-based; settings: DD2, read-out: IC50 against P. falciparum Dd2 (molar value in brackets)

{"columns": ["Molecule", "Tgt", "IC50 (nM)"],
 "data": [
  ["CCN(CC)CCCC(C)Nc1ccnc2cc(Cl)ccc12 (centres unmarked) [Chloroquine, chloroquine diphosphate]", "Plasmodium falciparum Dd2 (chloroquine-resistant strain)", 310],
  ["C[C@H]1[C@H](OC(=O)CCC(=O)O)O[C@@H]2O[C@@]3(C)CC[C@H]4[C@H](C)CC[C@@H]1[C@@]24OO3 [Artesunate, artesunate]", "Plasmodium falciparum Dd2 (chloroquine-resistant strain)", 5.48]
]}

###

assay: in vitro; settings: human

{"columns": ["Compound", "CC50 at 48 h (µg/mL)"],
 "data": [
  ["C[C@H]1[C@H](OC(=O)CCC(=O)O)O[C@@H]2O[C@@]3(C)CC[C@H]4[C@H](C)CC[C@@H]1[C@@]24OO3 [Artesunate, artesunate]", 5.63]
]}

###

system: Plasmodium falciparum 3D7 (chloroquine-sensitive strain); assay: In vitro drug sensitivity assay (modified WHO microtest), schizont maturation; assay type: cell-based; details: 3D7, read-out: IC50 against P. falciparum 3D7 (molar value in brackets)
pIC50: −log10 of the molar value.
Property: pIC50; scope: individual compounds

{"columns": ["Compound", "pIC50"],
 "data": [
  ["CCN(CC)CCCC(C)Nc1ccnc2cc(Cl)ccc12 (centres unmarked) [Chloroquine, chloroquine diphosphate]", 7.61],
  ["C[C@H]1[C@H](OC(=O)CCC(=O)O)O[C@@H]2O[C@@]3(C)CC[C@H]4[C@H](C)CC[C@@H]1[C@@]24OO3 [Artesunate, artesunate]", 8.74]
]}
